# ASSAY_SUMMARY: Endoscopic ultrasound-guided portal vein injection of irinotecan loaded microbeads vs jugular vein irinotecan: plasma and tissue concentrations (LC/MS)
# Format: in vivo, pigs
# CONDITIONS: pig, bone marrow, intravenous; control: unloaded irinotecan 100 mg into jugular vein; at one hour; read-out: Irinotecan level, Bone Marrow
PROPERTY_MEASURED: concentration at 1 h (ng/mL)

>>> reading("CCc1c2c(nc3ccc(OC(=O)N4CCC(N5CCCCC5)CC4)cc13)-c1cc3c(c(=O)n1C2)COC(=O)[C@]3(O)CC")
1700

----------
# ASSAY_SUMMARY: Endoscopic ultrasound-guided portal vein injection of irinotecan loaded microbeads vs jugular vein irinotecan: plasma and tissue concentrations (LC/MS)
# Type: in vivo, pigs
# CONDITIONS: pig, intravenous; control: unloaded irinotecan 100 mg into jugular vein; skeletal muscle at 1 hour; read-out: Irinotecan level, Muscle
PROPERTY_MEASURED: concentration at 1 h

>>> reading("CCc1c2c(nc3ccc(OC(=O)N4CCC(N5CCCCC5)CC4)cc13)-c1cc3c(c(=O)n1C2)COC(=O)[C@]3(O)CC")
"1060 ng/g"
